Kindly state z-score for each of the entries shown.
# experiment: CREB reporter modulators under forskolin, primary screen, cell-based, PC12, CRE-LacZ reporter, forskolin-stimulated (AID 1146);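 note: PC12 cells with 6xCRE LacZ reporter stimulated by forskolin 10 µM; beta-galactosidase reporter signal reflecting CREB driven transcription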
# assaySetup: luminescence, 4.5 h, higher = more signal, called active from +8 up or from −8 down
Calls of active or inactive are those of the source.

Examples with answers:
COC(=O)c1c(CC[C@@H](CO)NC(=O)N[C@@H](Cc2ccccc2)Cn2cc(-c3cncn3C)nn2)oc(C(C)=O)c1C(=O)OC :: -0.566 (inactive)
COCC1=C([C@H](O)CCc2ccccc2)[C@H](CO)n2c(=O)n(-c3ccccc3)c(=O)n2C1 :: -0.2 (inactive)
COCCCN1C(=O)[C@@]2(Cc3ccccc31)c1ccccc1C(=O)N(Cc1ccccc1OC)[C@H]2c1ccc(CO)cc1 :: 1.2 (inactive)

Turning to the following molecule.
INPUT: // lookup z-score for `COc1ccc([Si](C)(C)[C@H]2[C@H](CCn3cc([C@H](O)c4ccccc4)nn3)O[C@@]3(C(=O)N(c4ccccc4)c4ccccc43)[C@@H]2C)cc1`
OUTPUT: 0.115 (inactive)

###

# experiment: RPMI8226 myeloma cell viability, profiling panel, resazurin fluorescence, basal, 24 h, PK04 Diversity Set (AID 1180);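 note: RPMI8826 multiple myeloma cell line at 5000 cells per well; test concentration not given here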
# assaySetup: higher = more signal
Kindly state z-score for each of the entries shown.
Give bare numbers.

Examples with answers:
COCCOC(=O)N1C(=O)[C@@]2(c3ccccc31)[C@H](c1ccc(OCCO)cc1)N1[C@H](c3ccccc3)[C@H](c3ccccc3)OC(=O)[C@H]1[C@@H]2C(=O)N1CCN(c2ncccn2)CC1 :: 0.603
COc1cc2c(cc1O)C(C1CC1)N(Cc1ccc([N+](=O)[O-])o1)CC2 (centres undefined) :: 0.211
O=C1NC(=O)C2C1C=CC(C(O)c1cccc(O)c1)N2Nc1ccc(Cl)cc1Cl (centres undefined) :: -1.69
CC1(C)OC[C@@]23C=C(Br)[C@@H](C[C@H]12)[C@@]1(CO1)C3=O :: 0.325
CCOC(=O)C1=CC[C@@H](c2ccccc2)N(S(=O)(=O)C[Si](C)(C)C)[C@H]1c1ccccc1 :: 0.343
CN(C)CCCCNC(=O)[C@H]1C[C@H]2C(=O)N[C@@H](Cc3ccccc3)C(=O)N2[C@H]1c1cccc(OCCO)c1 :: 1.06

Go through the items and report each one's z-score.
1. NC(=O)NCC#Cc1ccc2c(c1)[C@]1(C(=O)N2)[C@H](C(=O)Nc2nc3ccccc3s2)[C@H]2C(=O)O[C@H](c3ccccc3)[C@H](c3ccccc3)N2[C@@H]1c1ccc(OCCO)cc1
2. CCCCC(O)C1C=CC2C(=O)NC(=O)C2N1Nc1ccccn1 (centres undefined)

OUTPUT:
1: -0.271; 2: -1.07

Go through the items and report each one's z-score.
1. COCCOC(=O)N1C(=O)[C@@]2(c3cc(C#CC4(O)CCCCCC4)ccc31)[C@H](C(=O)N1CCc3cc(OC)c(OC)cc3C1)[C@H]1C(=O)O[C@H](c3ccccc3)[C@H](c3ccccc3)N1[C@@H]2c1ccc(O)cc1
2. CN1C(=O)[C@]2(CCS(=O)(=O)c3ccccc3)N=C(c3ccc(OCCCO)cc3)O[C@@H]2c2ccccc21
3. COCCCN1C(=O)[C@@]2(Cc3ccccc31)c1ccccc1C(=O)N(Cc1ccccc1OC)[C@H]2c1ccc(CO)cc1
4. CC(C)C[C@@H]1NC(=O)[C@H]2C[C@@H](C(=O)NCCCCCCNC(=O)CS)[C@@H](c3ccc(O)cc3)N2C1=O
5. COCCOC(=O)N1C(=O)[C@@]2(c3cc(C#CCC(C(=O)OC)C(=O)OC)ccc31)[C@H](c1ccc(OCCO)cc1)N1[C@H](c3ccccc3)[C@H](c3ccccc3)OC(=O)[C@H]1[C@@H]2C(=O)N1CCCCCCC1
6. COCC(=C=CC[C@@H](O)c1cccc(OCCO)c1)C[C@@H](O)COCc1ccccc1

OUTPUT:
-0.0713
-1.02
-0.0935
-0.596
0.174
0.629

###

# assayedTarget: Fibroblast growth factor 10 (Homo sapiens)
# experiment: FGF10 binders on small-molecule microarrays, primary screen, biochemical, small-molecule microarray, 635 nm fluorescence (AID 1102)
# assaySetup: FGF10 binding, fluorescence 635 nm, higher = more signal
measuredParameter: composite z-score
Give bare numbers.

C#CCN(C/C=C/c1ccccc1)[C@H](CO[Si](C)(C)C(C)(C)C)c1ccccc1 :: 0.108
CCN(CC)c1ccc(N2CC=CC34O[C@@H]5C=CCOC(=O)[C@@H]5[C@H]3C(=O)N(CCO)[C@@H]4C2=O)cc1 (some centres undefined) :: -0.938
CC1CC/C=C\[C@H]2OC34C=CCN(c5ccc(Cl)cc5)C(=O)[C@H]3N(CCCO)C(=O)[C@]4(C)C2C(=O)O1 (some centres undefined) :: -1.32

Turning to the following compound.
INPUT: // lookup composite z-score for N#Cc1ccc(C(O)C2C=CC3C(=O)N(c4ccccc4)C(=O)C3N2Nc2ccc([N+](=O)[O-])cc2)cc1 (centres undefined)
OUTPUT: 0.395

###

# experiment: small-molecule binders of probe aNOTCH3, primary screen, biochemical, small-molecule microarray, 635/667 nm fluorescence (AID 1120);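 note: probe is a biotin-tagged antibody raised against NOTCH3 rather than NOTCH3 protein; score merges spot fluorescence near 667 nm with spot signal to noise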
# assaySetup: higher = more signal
measuredParameter: composite z-score
Give bare numbers.

Examples with answers:
COc1ccc(CCNC(=O)[C@@]2(C)c3ccccc3C(=O)N(Cc3cc(C(F)(F)F)cc(C(F)(F)F)c3)[C@H]2c2ccc(CO)cc2)cc1 :: -0.179
C=C(CC1([C@@H](NP(=O)(c2ccccc2)c2ccccc2)[C@H]2C[C@@H]2CCN(C(=O)OCC)S(=O)(=O)c2ccc(C)cc2)CC1)c1ccccc1 :: 0.6
Cc1ccc(S[C@]2(C(=O)NCC(F)(F)F)CC(=O)N(C3CCCCC3)[C@@H]2c2ccc(CO)cc2)cc1 :: -0.161

Turning to the following compound.
INPUT: // lookup composite z-score for `CC(C)CNC(=O)[C@@H]1c2ccccc2C(=O)N(Cc2ccccc2)[C@H]1c1ccc(CO)cc1`
OUTPUT: -0.394

###

# assayedTarget: Homeobox protein Hox-A13 (Mus musculus) (UniProt Q62424)
# Sequence (Q62424 whole entry, looked up): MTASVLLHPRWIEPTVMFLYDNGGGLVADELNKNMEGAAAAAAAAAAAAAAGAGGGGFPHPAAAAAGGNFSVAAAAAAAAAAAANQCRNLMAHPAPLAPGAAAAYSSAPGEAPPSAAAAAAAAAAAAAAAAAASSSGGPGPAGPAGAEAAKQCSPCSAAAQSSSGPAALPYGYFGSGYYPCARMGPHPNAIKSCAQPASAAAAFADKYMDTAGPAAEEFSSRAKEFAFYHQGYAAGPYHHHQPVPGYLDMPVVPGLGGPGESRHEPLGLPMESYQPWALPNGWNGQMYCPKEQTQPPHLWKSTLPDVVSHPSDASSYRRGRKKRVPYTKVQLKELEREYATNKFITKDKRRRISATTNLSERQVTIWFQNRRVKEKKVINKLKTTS
# experiment: inhibitors of HoxA13-DNA binding, primary screen, biochemical, fluorescence polarization, labeled oligonucleotide (AID 1185)
# assaySetup: 15 min, higher = more signal, called active from +8 up or from −8 down
Kindly state z-score for each of the entries shown.
Give bare numbers.

O=C(NCC(F)(F)F)[C@@H]1c2ccccc2C(=O)N(CC23CC4CC(CC(C4)C2)C3)[C@H]1c1ccc(CO)cc1 :: -4.02
CCCCC(O)C1C=CC2C(=O)N(C)C(=O)C2N1Nc1ccccc1 (configuration not stated) :: -4.23
NC(=O)NCC#Cc1ccc2c(c1)[C@]1(C(=O)N2)[C@H](C(=O)Nc2nc3ccccc3s2)[C@H]2C(=O)O[C@H](c3ccccc3)[C@H](c3ccccc3)N2[C@@H]1c1ccc(OCCO)cc1 :: 0.217
CC(C)(C)OC(=O)CC[C@]1(C(N)=O)N=C(c2ccc(OCCCO)cc2)O[C@H]1c1ccccc1CN=[N+]=[N-] :: -4.12

Go through the items and report each one's z-score.
1. COc1ccc(NC(=O)O[C@H]2[C@H](OC(=O)Nc3ccc4c(c3)OCO4)[C@H](OC(=O)Nc3ccc4c(c3)OCO4)[C@@H](OC)O[C@@H]2CO)cc1
2. COc1ccc(CCNC(=O)[C@@]2(C)c3ccccc3C(=O)N(Cc3cc(C(F)(F)F)cc(C(F)(F)F)c3)[C@H]2c2ccc(CO)cc2)cc1
3. O=C1O[C@@H](c2ccccc2)[C@@H](c2ccccc2)N2[C@@H](c3ccc(OCCO)cc3)[C@]3(C(=O)Nc4ccc(C#CCCO)cc43)[C@@H](C(=O)Nc3nc4ccccc4s3)[C@H]12

OUTPUT:
1: -4.94; 2: -2.88; 3: 1.8

###

# experiment: COS7 lysate on small-molecule microarray, probe aHis, 635 nm (AID 1123);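 note: z-score combines 667nm fluorescence intensity with signal-to-noise per printed compound spot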
# assaySetup: COS7 cell lysate, fluorescence, higher = more signal
Kindly state composite z-score for each of the entries shown.
Numbers only.

Examples with answers:
CC(C)c1ccc(NN2C(C(O)C(C)C)C=CC3C(=O)N(c4ccccc4)C(=O)C32)cc1 (stereo not drawn) :: 2.89
CC(c1ccccc1)C(O)C1C=CC2C(=O)N(c3ccccc3)C(=O)C2N1Nc1ccc(C#N)cc1 (stereo not drawn) :: 3.28

Go through the items and report each one's composite z-score.
1. C=CCC(OC(C)=O)[C@@H]1[C@@H](N(Cc2ccc(-c3ccccc3)cc2)C(=O)c2ccc(-c3ccccc3)cc2)c2cc(OCCCO)ccc2N1C(=O)c1ccc2ccccc2n1 (stereo partly drawn)
2. O=C1C2C=CC(C(O)C(c3ccccc3)c3ccccc3)N(Nc3ccccc3)C2C(=O)N1c1ccccc1 (stereo not drawn)
3. COC(=O)[C@@]1(CCS(=O)(=O)c2ccccc2)N=C(c2ccc(OCCCO)cc2)O[C@H]1c1ccccc1N=[N+]=[N-]
4. C=C(CCCC)/C(=C/C[C@H](OC(C)=O)c1cccc(OCCO)c1)c1cc(C(=O)OC)ccc1OC
5. COC(=O)C1(CC(C)C)C=C2C(=C(C(C)C)C(=O)C2C)CN1 (stereo not drawn)
6. C=CCC(OC(C)=O)[C@@H]1[C@@H](N(Cc2ccc(-c3cccc(C(F)(F)F)c3)o2)C(=O)c2cccc3ccccc23)c2cc(OCCCO)ccc2N1C(=O)c1ccc2ccccc2n1 (stereo partly drawn)

OUTPUT:
1: -0.137; 2: 2.17; 3: 2.92; 4: -0.148; 5: 0.0678; 6: 0.385
